A compilation of IC50 values for BTK (Homo sapiens, UniProt Q06187) from the published literature.

[[record]]
compound = "C=CC(=O)Nc1cccc(Oc2nc(Nc3ccc(N4CCC(CN(C)C)CC4)cc3)nc3ccsc23)c1"
parameter = "IC50"
reading = "50 to 100 nM"


Which IC50 value belongs to C=CC(=O)N1CC2CC1C(n1nc(-c3ccc(COC)cc3)c3c(N)ncnc31)C2 (stereo not drawn) ?
29.6 nM

How about this compound: `CN(C)C/C=C/C(=O)N(C)c1cccc(-n2c(=O)n(-c3ccc(Oc4ccccc4)cc3)c3c(N)ncnc32)c1`
< 100 nM

----------
A compilation of IC50 values for BTK (Homo sapiens) from the published literature.

Examples from the recorded data:
[[record]]
compound = "C=CC(=O)Nc1cccc(-c2cc(-c3ccc(C(=O)Nc4cc(C5CC5)ccn4)cc3)c(N)c3cncnc23)c1"
experimental_target = "BTK (Homo sapiens)"
parameter = "IC50"
reading = "< 0.1 µM"

[[record]]
compound = "CC#CC(=O)N1CCCC(n2cc(-c3ccc(Oc4ccccc4)cc3)c3c(N)n[nH]c(=O)c32)C1 (stereo not shown)"
experimental_target = "BTK (Homo sapiens)"
parameter = "IC50"
reading = "1 to 100 µM"

[[record]]
compound = "O=C(CCl)Nc1cccc(Nc2cc(Nc3ccc(F)c(Cl)c3)ncn2)c1"
experimental_target = "BTK (Homo sapiens)"
parameter = "IC50"
reading = "≤ 0.01 µM"


Attention now turns to another entry.
Which IC50 value belongs to `CN(C/C=C/C(=O)N1CCC[C@@H](n2cc(-c3ccc(Oc4ccccc4)cc3)c3c(N)n[nH]c(=O)c32)C1)C1CC1` ?
0.01 to 1 µM

----------
A compilation of IC50 values for BTK (Homo sapiens) from the published literature.

Examples from the recorded data:
[[record]]
compound = "CN(C/C=C/C(=O)N1CC[C@@H](n2c(C#N)c(-c3ccc(Oc4ccccc4)cc3)c3c(N)ncnc32)C1)C1CC1"
reading = "< 0.1 µM"

[[record]]
compound = "C=CC(=O)N1CC2CC1C(n1nc(-c3ccc(Oc4cccc(N(C)C)c4)cc3)c3c(N)ncnc31)C2 (stereo not shown)"
reading = "0.0034 µM"

[[record]]
compound = "CN(C)C/C=C/C(=O)N1CCC(C2CCNn3c2nc(-c2ccc(Oc4ccccc4)cc2)c3C(N)=O)CC1 (stereo not shown)"
reading = "0.185 µM"


Which IC50 value belongs to `CN1CCN(CC2CCN(c3nc(-c4cnn(C)c4)cn4nccc34)CC2)C(=O)C1` ?
1 to 10 µM

----------
A compilation of IC50 values for BTK (Homo sapiens, UniProt Q06187) from the published literature.

Examples from the recorded data:
[[record]]
compound = "C=CC(=O)N1C2CC[C@@H](C2)C1c1nc(-c2ccc(C(C)(O)c3ccccc3)cc2)c2c(N)nccn12 (stereo partly drawn)"
reading = "4.9 nM"

[[record]]
compound = "O=C(CNc1ccccc1S(=O)(=O)N1CCC(F)(F)CC1)N[C@@H]1CCCN(c2ncnc3[nH]ncc23)C1"
reading = "< 100 nM"

[[record]]
compound = "CN(C/C=C/C(=O)N1CC[C@@H](n2c(Cl)c(-c3ccc(Oc4ccccc4)cc3)c3c(N)ncnc32)C1)[C@H]1CCOC1"
reading = "< 100 nM"

[[record]]
compound = "CCOc1cc(C(=O)Nc2cc(C(F)(F)F)ccn2)cc(F)c1-c1nc([C@]2(C)CC[C@H]3COC(=O)N3C2)n2ccnc(N)c12"
reading = "0.59 nM"


Which IC50 value belongs to `CN(C)C/C=C/C(=O)N1CCC(n2nc(-c3ccc(Oc4ccccc4)cc3)c3c(N)ncnc32)CC1` ?
6.3 nM

How about this compound: `Cc1cc(NC(=O)c2ccc(-n3c(=O)n(-c4cccc(N(C)C(=O)/C=C/CN(C)C)c4)c4ncnc(N)c43)cc2)ncc1F`
< 100 nM
